assay: Toxicity liver stage against HepG2, at 10uM; type: cell-based; design: test concentration 10 uM, cell line HepG2-A16-CD81EGFP; conditions: human, HepG2-A16-CD81EGFP cells; read-out: INHIBITION
A collection of molecules and their measured cytotoxicity at 10 µM
Answer format: numeric, % implied, no suffix.

Examples from the recorded data:
>>> reading("CN(CC1=CCCN(Cc2cccc(C#N)c2)C1)C(=O)c1ccco1")
-5.15
>>> reading("Cc1nnc(CN(C)C2CCCN(Cc3noc(C4CC4)n3)C2)o1 (configuration not stated)")
-2.51
>>> reading("CNc1snc(C)c1C(=O)N1CCCC(n2cccn2)C1 (configuration not stated)")
-3.81
>>> reading("O=C1[C@@H]2CCN(Cc3ccccn3)C[C@@H]2OCCN1c1ccccc1")
-73.7
>>> reading("O=C(c1ccc(N2CCOCC2)nc1)N1CCCC(n2cccn2)C1 (configuration not stated)")
-11.2

Input line: I would be grateful if you could share the reported cytotoxicity at 10 µM for O=C(CCOCC(F)(F)F)N1CCCC(n2ccnc2)C1 (configuration not stated) .
Output line: -8.14

Input line: I would be grateful if you could share the reported cytotoxicity at 10 µM for Cc1noc(C)c1CN(C)C(=O)NC(C)Cc1ccco1 (configuration not stated) .
Output line: 11.3

Input line: I would be grateful if you could share the reported cytotoxicity at 10 µM for NC(=O)Cc1csc(NC(=O)C2CSCCC(=O)N2)n1 (configuration not stated) .
Output line: 0.722

Input line: I would be grateful if you could share the reported cytotoxicity at 10 µM for O=C(NCC1(CO)CC1)c1ccccc1C(F)(F)F .
Output line: 4

Input line: I would be grateful if you could share the reported cytotoxicity at 10 µM for CN(C)CC1CN(c2ccc(C#N)cn2)CCO1 (configuration not stated) .
Output line: -4.67

Input line: I would be grateful if you could share the reported cytotoxicity at 10 µM for Cn1nccc1C(=O)N1CCCC2(CCN(c3ccsc3)C2=O)C1 (configuration not stated) .
Output line: -121

Input line: I would be grateful if you could share the reported cytotoxicity at 10 µM for CN(C)c1nc(N)nc(CN2CCC(c3ccccc3)CC2)n1 .
Output line: 7.36
